Each recorded value in this set is attributed to patent US20240408222A1.

# Test system: SUM149
# ASSAY: Cytotoxicity in vitro (MTT) in presence/absence of elastase
# Assay type: cell-based
# MEASUREMENT SETUP: SUM149, without (−) neutrophil elastase, 72 h
# Description: Cultivation of cells was performed according to standard procedures with the media recommended by the provider. The cells, in a total volume of 100 μL, were seeded in a 96-well plate with a white bottom (#3610). After a 24 h incubation period at 37° C. and […], the medium was exchanged by adding 90 μL fresh medium. […] The proliferation was detected using the MTT assay (ATCC). […] The formed dye was detected at 570 nm. […]
pIC50: −log10 of the molar value.
pIC50 overview
QUANTITY KIND: pIC50

INSERT INTO assay_data (molecule, observed_measurement) VALUES
  ('CCCNC(=O)Nc1cccc(S(=O)(=O)Nc2cccc([C@@H](CC(=O)[O-])NC(=O)Nc3ccc(NC(=O)NCCOCCOCCOCCC(=O)N[C@@H](CC(=O)[O-])C(=O)N4CCC[C@H]4C(=O)N[C@H](C(=O)N=[S@@](C)(=O)Cc4cc5cc(c4)OCCCCOc4cc(F)ccc4-c4nc(ncc4F)N5)C(C)C)cc3)c2)c1.[Na+].[Na+] [Compound 3]', '< 7.00'),
  ('CCCNC(=O)Nc1cccc(S(=O)(=O)Nc2cccc([C@@H](CC(=O)O)NC(=O)Nc3ccc(NC(=O)N(C)CCN(C)CCN(C)CC(=O)N[C@@H](CC(N)=O)C(=O)N4CCC[C@H]4C(=O)N[C@H](C(=O)N=[S@@](C)(=O)Cc4ccnc(Nc5cc(-c6ccc(F)cc6OC)c(F)cn5)c4)C(C)C)cc3)c2)c1 [Compound 4]', '< 7.00'),
  ('CCCNC(=O)Nc1cccc(S(=O)(=O)Nc2cccc([C@H](CC(=O)O)NC(=O)Nc3ccc(NC(=O)NCCN(C)CCN(C)CCN(C)CC(=O)N[C@@H](CC(N)=O)C(=O)N4CCC[C@H]4C(=O)N[C@H](C(=O)N=[S@@](C)(=O)Cc4cc5cc(c4)OCCCCCNc4cc(ccc4F)-c4nc(ncc4F)N5)C(C)C)cc3)c2)c1 (relative stereo) [Compound 16]', '7.00 to 7.96');

====

# Tested on: 786-O
# ASSAY: Cytotoxicity assay (Version 2, automated, AC50) with/without neutrophil elastase
# Assay type: cell-based, human
# MEASUREMENT SETUP: with (+) neutrophil elastase, Version 2, activity concentration at −50%
Where a name gives a salt, the structure may show the parent alone.
Each entry below carries its reported AC50.
QUANTITY KIND: AC50

INSERT INTO measurements (molecule, quantity_kind, observed_measurement) VALUES
  ('CCCNC(=O)Nc1cccc(S(=O)(=O)Nc2cccc([C@@H](CC(=O)O)NC(=O)Nc3ccc(NC(=O)NCCOCCOCCOCCC(=O)N[C@@H](CC(=O)O)C(=O)N4CCC[C@H]4C(=O)N[C@@H](C(=O)N=[S@@](C)(=O)Cc4cc5cc(c4)O[C@@H](C)CCOc4cc(F)ccc4-c4nc(ncc4F)N5)C(C)C)cc3)c2)c1 (relative stereo) [Compound 39]', 'AC50', '≤ 10 nM'),
  ('CCCNC(=O)Nc1cccc(S(=O)(=O)Nc2cccc([C@H](CC(=O)O)NC(=O)Nc3ccc(NC(=O)NCCOCCOCCOCCC(=O)NCCCC[C@H](NC(=O)CCOCCOCCOCCNC(=O)Nc4ccc(NC(=O)N[C@@H](CC(=O)O)c5cccc(NS(=O)(=O)c6cccc(NC(=O)NCCC)c6)c5)cc4)C(=O)NCCN(C)CCN(C)CCN(C)CC(=O)N[C@@H](CC(N)=O)C(=O)N4CCC[C@H]4C(=O)N[C@H](C(=O)N=[S@@](C)(=O)Cc4cc5cc(c4)O[C@@H](C)CCOc4cc(F)ccc4-c4nc(ncc4F)N5)C(C)C)cc3)c2)c1 (relative stereo) [Compound 29]', 'AC50', '≤ 10 nM'),
  ('CCCNC(=O)Nc1cccc(S(=O)(=O)Nc2cccc([C@@H](CC(=O)[O-])NC(=O)Nc3ccc(NC(=O)NCCOCCOCCOCCC(=O)N[C@H](C(=O)N[C@@H](CCCNC(N)=O)C(=O)N=[S@@](C)(=O)Cc4cc5cc(c4)OCCCCOc4cc(F)ccc4-c4nc(ncc4F)N5)C(C)C)cc3)c2)c1.[Na+] [Compound 7]', 'AC50', '11 to 100 nM'),
  ('CCCNC(=O)Nc1cccc(S(=O)(=O)Nc2cccc([C@@H](CC(=O)O)NC(=O)Nc3ccc(NC(=O)NCCN(C)CCN(C)CCN(C)CC(=O)N[C@@H](CC(N)=O)C(=O)N4CCC[C@H]4C(=O)N[C@H](C(=O)N=[S@@](C)(=O)Cc4cc5cc(c4)OCCCCCNc4cc(ccc4F)-c4nc(ncc4F)N5)C(C)C)cc3)c2)c1 (relative stereo) [Compound 15]', 'AC50', '100 to 1000 nM'),
  ('CCCNC(=O)Nc1cccc(S(=O)(=O)Nc2cccc([C@@H](CC(=O)O)NC(=O)Nc3ccc(NC(=O)NCCOCCOCCOCCC(=O)N[C@@H](CC(=O)O)C(=O)N4CCC[C@H]4C(=O)N[C@H](C(=O)N=[S@](C)(=O)Cc4cc5nc(c4)O[C@H](C)CCCCOc4cc(F)ccc4-c4cc(ncc4F)N5)C(C)C)cc3)c2)c1 (relative stereo) [Compound 56]', 'AC50', '11 to 100 nM'),
  ('CCCNC(=O)Nc1cccc(S(=O)(=O)Nc2cccc([C@@H](CC(=O)O)NC(=O)Nc3ccc(NC(=O)NCCOCCOCCOCCC(=O)N[C@@H](CC(=O)OCCC[N+](C)(C)C)C(=O)N4CCC[C@H]4C(=O)N[C@H](C(=O)N=S(C)(=O)Cc4cc5cc(c4)OCCCCOc4cc(F)ccc4-c4nc(ncc4F)N5)C(C)C)cc3)c2)c1 (single isomer, unassigned) [Compound 20, trifluoroacetate]', 'AC50', '11 to 100 nM');

====

# System: 786-O
# ASSAY: Cytotoxicity in vitro (MTT) in presence/absence of elastase
# Format: cell-based, human
# MEASUREMENT SETUP: with (+) 10 nM neutrophil elastase, 72 h
Quick reference: IC50 of the listed items.
QUANTITY KIND: IC50

INSERT INTO assay_data (compound, observed_measurement) VALUES
  ('CCCNC(=O)Nc1cccc(S(=O)(=O)Nc2cccc([C@@H](CC(=O)O)NC(=O)Nc3ccc(NC(=O)N(C)CCN(C)CCN(C)CC(=O)N[C@@H](CC(N)=O)C(=O)N4CCC[C@H]4C(=O)N[C@H](C(=O)N=[S@@](C)(=O)Cc4ccnc(Nc5cc(-c6ccc(F)cc6OC)c(F)cn5)c4)C(C)C)cc3)c2)c1 [Compound 4]', '11 to 100 nM'),
  ('CCCNC(=O)Nc1cccc(S(=O)(=O)Nc2cccc([C@H](CC(=O)O)NC(=O)Nc3ccc(NC(=O)NCCOCCOCCOCCC(=O)NCCCC[C@H](NC(=O)CCOCCOCCOCCNC(=O)Nc4ccc(NC(=O)N[C@@H](CC(=O)O)c5cccc(NS(=O)(=O)c6cccc(NC(=O)NCCC)c6)c5)cc4)C(=O)NCCOCCOCCOCCC(=O)N[C@@H](CC(=O)O)C(=O)N4CCC[C@H]4C(=O)N[C@H](C(=O)N=[S@@](C)(=O)Cc4cc5cc(c4)OCCCCOc4cc(F)ccc4-c4nc(ncc4F)N5)C(C)C)cc3)c2)c1 [Compound 19]', '1.1 to 10 nM'),
  ('CCCNC(=O)Nc1cccc(S(=O)(=O)Nc2cccc([C@@H](CC(=O)O)NC(=O)Nc3ccc(NC(=O)N(C)CCN(C)CCN(C)CC(=O)N[C@@H](CC(N)=O)C(=O)N4CCC[C@H]4C(=O)N[C@H](C(=O)N=[S@@](C)(=O)Cc4cc5cc(c4)OCCCCOc4cc(F)ccc4-c4nc(ncc4F)N5)C(C)C)cc3)c2)c1 [Compound 5]', '≤ 1 nM'),
  ('CCCNC(=O)Nc1cccc(S(=O)(=O)Nc2cccc([C@H](CC(=O)O)NC(=O)Nc3ccc(NC(=O)NCCOCCOCCOCCC(=O)N[C@@H](CC(=O)O)C(=O)N4CCC[C@H]4C(=O)N[C@H](C(=O)N=[S@@](C)(=O)Cc4cc5cc(c4)OCCCCOc4cc(F)ccc4-c4nc(ncc4F)N5)C(C)C)cc3)c2)c1 [Compound 14]', '≤ 1 nM');

====

# System: 786-O
# ASSAY: Cytotoxicity assay (Version 2, automated, AC50) with/without neutrophil elastase
# Format: cell-based, human
# MEASUREMENT SETUP: with (+) neutrophil elastase, Version 2, activity concentration at −50%
# Method: Cultivation of cells was performed according to standard procedures with the media recommended by the provider. The cells, in a total volume of 100 μL, were seeded in a 96-well plate with a white bottom (#3610). After a 24 h incubation period at 37° C. and […], the medium was exchanged by adding 90 μL fresh medium. […] The proliferation was detected using the MTT assay (ATCC). […] The formed dye was detected at 570 nm. […]
Recorded AC50 values for a group of compounds are listed next.
QUANTITY KIND: AC50

INSERT INTO results (compound, observed_measurement) VALUES
  ('CCCNC(=O)Nc1cccc(S(=O)(=O)Nc2cccc([C@@H](CC(=O)O)NC(=O)Nc3ccc(NC(=O)NCCOCCOCCOCCC(=O)N[C@@H](CC(=O)O)C(=O)N4CCC[C@H]4C(=O)N[C@H](C(=O)N=S(C)(=O)Cc4cc5cc(c4)OCCCCOc4cc(F)ccc4-c4nc(ncc4F)N5)C(C)C)cc3)c2)c1 (relative stereo)', '11 to 100 nM'),
  ('CCCNC(=O)Nc1cccc(S(=O)(=O)Nc2cccc([C@H](CC(=O)O)NC(=O)Nc3ccc(NC(=O)NCCN(C)CCN(C)CCN(C)CC(=O)N[C@@H](CC(N)=O)C(=O)N4CCC[C@H]4C(=O)N[C@H](C(=O)N=[S@@](C)(=O)Cc4cc5cc(c4)OCCCCCNc4cc(ccc4F)-c4nc(ncc4F)N5)C(C)C)cc3)c2)c1 (relative stereo)', '11 to 100 nM'),
  ('CCCNC(=O)Nc1cccc(S(=O)(=O)Nc2cccc([C@@H](CC(=O)O)NC(=O)Nc3ccc(NC(=O)NCCOCCOCCOCCC(=O)N[C@@H](CC(=O)O)C(=O)N4CCC[C@H]4C(=O)N[C@H](C(=O)N=[S@@](C)(=O)Cc4cc5nc(c4)OCCCOc4cc(F)ccc4-c4cc(ncc4F)N5)C(C)C)cc3)c2)c1 (racemic)', '≤ 10 nM');
